experiment: physchem; settings: 37 °C, water
Where a name gives a salt, the structure may show the parent alone.
PROPERTY: solubility

Returns the measured solubility for the input compound. Input: Cc1ccc(O)c([C@H](CCN(C(C)C)C(C)C)c2ccccc2)c1 [tolterodine tartrate]
~12 mg/mL

Field entry: Nc1ccn([C@@H]2O[C@H](CO)[C@@H](O)C2(F)F)c(=O)n1 [gemcitabine HCl]
~80 mg/mL
